Origin of measurements: patent US7396837B2

Tested on: LNCaP
MEASUREMENT PROTOCOL: SRB colorimetric cell growth inhibition assay, LNCaP
Assay type: cell-based
DETAILS: Homo sapiens, LNCaP, LN-caP; cell killing (cytotoxic effect); read-out: LC50 LN-caP
PROPERTY LABEL: CC50 (µM)

CC[C@H](C)[C@H](N)C(=O)Oc1ccc(-c2c3c4cc(OC)c(OC(=O)[C@@H](N)[C@@H](C)CC)cc4oc(=O)c3n3ccc4cc(OC(=O)[C@@H](N)[C@@H](C)CC)c(OC)cc4c23)cc1OC [Compound 209]
0.233
COc1cc(-c2c3c4cc(OC)c(OC(=O)C[C@H](N)C(C)C)cc4oc(=O)c3n3ccc4cc(OC(=O)C[C@H](N)C(C)C)c(OC)cc4c23)ccc1OC(=O)C[C@H](N)C(C)C [Compound 206]
3.33
COc1cc(-c2c3c4cc(OC)c(OC(=O)[C@@H](N)Cc5ccccc5)cc4oc(=O)c3n3ccc4cc(OC(=O)[C@@H](N)Cc5ccccc5)c(OC)cc4c23)ccc1OC(=O)[C@@H](N)Cc1ccccc1 [Compound 204]
0.597
COc1cc(-c2c3n(c4c(=O)oc5cc(O)c(OC)cc5c24)CCc2c-3cc(OC)c(OC)c2O)ccc1O [Compound 1]
7.85
